Consider the following compounds; for each one, report its inhibition of SARS-CoV-2 cytopathic effect.
# Test system: Vero E6 infected with SARS-CoV-2
# assayNotes: inhibition of SARS-CoV-2 cytopathic effect; higher = more antiviral protection, active = above 15
# testContext: 833.33 nM; 48 h
Answers are plain numbers, in %.

Reference set, count: 3
For Cc1c(F)cc(C(=O)NC2CC2)cc1-c1ccc(C(=O)NCC(C)(C)C)cn1 [losmapimod] , write its inhibition of SARS-CoV-2 cytopathic effect.
-4.24

For CCn1c(=O)/c(=C2\Sc3ccccc3N2C)s/c1=C\c1cccc[n+]1CC , write its inhibition of SARS-CoV-2 cytopathic effect.
-0.9

For C/C(=C\c1csc(C)n1)[C@@H]1C[C@@H]2O[C@]2(C)CCC[C@H](C)[C@H](O)[C@@H](C)C(=O)C(C)(C)[C@@H](O)CC(=O)N1 [ixabepilone] , write its inhibition of SARS-CoV-2 cytopathic effect.
-6.58

Report inhibition of SARS-CoV-2 cytopathic effect for every entry below.
1. Nc1ccncc1N [amifampridine]
2. C[C@@H]1CC[C@@]2(NC1)O[C@H]1C[C@H]3[C@@H]4CC=C5C[C@@H](O[C@@H]6O[C@H](CO)[C@@H](O[C@@H]7O[C@@H](C)[C@H](O)[C@@H](O)[C@H]7O)[C@H](O)[C@H]6O[C@@H]6O[C@@H](C)[C@H](O)[C@@H](O)[C@H]6O)CC[C@]5(C)[C@H]4CC[C@]3(C)[C@H]1[C@@H]2C [solamargine]

[-3.34, -3.82]

Report inhibition of SARS-CoV-2 cytopathic effect for every entry below.
1. COc1cc(C)c(/C=C/C(C)=C/C=C/C(C)=C/C(=O)O)c(C)c1C [acitretin]
2. Cc1cc(NC(=O)C2=C(O)c3ccccc3S(=O)(=O)N2C)no1 [isoxicam]
3. COc1ccc(CN(CCN(C)C)c2ccccn2)cc1 [mepyramine]
4. Cc1ccc(-c2ncn(-c3ccc(Nc4nccc(-c5cccc(N6CCOCC6)c5)n4)cc3)n2)cn1
5. c1ccc2c(c1)CCCc1cc(NCCN3CCOCC3)nnc1-2

1: -0.64; 2: -2.59; 3: 2.27; 4: -5.23; 5: 1.51

Report inhibition of SARS-CoV-2 cytopathic effect for every entry below.
1. CCOCCn1c(C2CCN(CCc3ccc(C(C)(C)C(=O)O)cc3)CC2)nc2ccccc21 [bilastine]
2. O=C(CCCN1CCC2(CC1)C(=O)NCN2c1ccccc1)c1ccc(F)cc1 [spiperone]
3. CC(=O)Nc1ccc(NC(=S)NC(=O)c2ccc(C(C)(C)C)cc2)cc1 [tenovin-1]
4. Nc1ccc(S(=O)(=O)Nc2cnc3ccccc3n2)cc1 [sulfaquinoxaline]
5. COc1cc(N)c(Cl)cc1C(=O)OCCN1CCCCC1
6. Cc1[nH]c2ccc(O)cc2c1CCN [2-methyl-5-hydroxytryptamine]

1. -1.14
2. 9.61
3. -7.1
4. -2.18
5. 1.01
6. -12.8

Report inhibition of SARS-CoV-2 cytopathic effect for every entry below.
1. COc1cc2c(=O)c(-c3ccc(O)cc3)coc2cc1O [glycitein]
2. CCOC(=O)c1ccc(OCCC2CCN(c3ccc(C)nn3)CC2)cc1 [pirodavir]

[-2.13, 1.49]

* * *

# System: Vero E6 infected with SARS-CoV-2
# assayNotes: inhibition of SARS-CoV-2 cytopathic effect; higher = more antiviral protection, active = above 15
# testContext: 8.33 nM; 48 h
Consider the following compounds; for each one, report its inhibition of SARS-CoV-2 cytopathic effect.
Numbers only, in %.

For CC(C)[C@H](C(=O)Nc1ccc(C(=O)NO)cc1)c1ccccc1 , write its inhibition of SARS-CoV-2 cytopathic effect.
0.31

For C=CC[C@]1(O)CC[C@H]2[C@@H]3CCC4=CC(=O)CCC4=C3C=C[C@@]21C [altrenogest] , write its inhibition of SARS-CoV-2 cytopathic effect.
-1.12

For COc1ccc(/C=C2\CCCN=C2c2cccnc2)c(OC)c1 , write its inhibition of SARS-CoV-2 cytopathic effect.
0.1

For OCCN1CCN(CCCN2c3ccccc3C=Cc3ccccc32)CC1 [opipramol] , write its inhibition of SARS-CoV-2 cytopathic effect.
1.37

For COCCNC(=O)COc1ccc(OCCNC[C@H](O)COc2ccccc2)cc1 , write its inhibition of SARS-CoV-2 cytopathic effect.
1.84

For CCS(=O)(=O)N1CCC[C@@H]2CN3CCc4cc(OC)ccc4[C@@H]3C[C@@H]21 , write its inhibition of SARS-CoV-2 cytopathic effect.
1.49

For COc1ccc2cc(-c3nc(-c4ccc([S+](C)[O-])cc4)[nH]c3-c3ccncc3)ccc2c1 (stereo not given) [tie2-kinase-inhibitor] , write its inhibition of SARS-CoV-2 cytopathic effect.
5.15

For O=S1(=O)N[C@H]2CCCN2c2ccccc21 , write its inhibition of SARS-CoV-2 cytopathic effect.
-6.86

Report inhibition of SARS-CoV-2 cytopathic effect for every entry below.
1. N=C(N)NCc1cccc(I)c1 [iobenguane]
2. C[C@@H]([C@H](O)c1ccc(O)cc1)N1CCC(Cc2ccccc2)CC1 (racemic) [ifenprodil]
3. Cc1ccc2c(c1CCC(=O)O)CC[C@@H](NS(=O)(=O)c1ccc(Cl)cc1)C2 [terutroban]

1. -0.29
2. -0.2
3. -2.46

Report inhibition of SARS-CoV-2 cytopathic effect for every entry below.
1. NCC(CC(=O)O)c1ccccc1 (stereo not given) [fenigam]
2. O=C1C2C=Nc3ccccc3C2=NN1c1ccc(Cl)cc1 (stereo not given)
3. CCCCCCCCCCCCCCCCOP(=O)([O-])OCC[N+](C)(C)C [miltefosine]
4. CC(=O)OCC1=C(C(=O)O)N2C(=O)[C@@H](NC(=O)CSc3ccncc3)[C@H]2SC1 [cephapirin]
5. OC[C@H]1O[C@H]([S-])[C@H](O)[C@@H](O)[C@@H]1O.[Au+] [aurothioglucose]

1. 0.98
2. -0.02
3. -0.08
4. 4.78
5. -0.7

Report inhibition of SARS-CoV-2 cytopathic effect for every entry below.
1. CCCCCCCCCCCCCCCCCCCCCCCCC(=O)O [pentacosanoic-acid]
2. CCCN(CCC)CCc1ccc(OC)c(OCCc2ccccc2)c1
3. CCCCNC(=O)[C@@H]1Cc2ccccc2N1C(=O)[C@@H](N)CC [butabindide]
4. CC1(C)Oc2ccc(C#N)cc2[C@H](N(Cc2ncc[nH]2)c2ccc(Cl)cc2)[C@H]1O

[-2.46, -0.82, 1.33, -1.34]

* * *

Consider the following compounds; for each one, report its inhibition of SARS-CoV-2 cytopathic effect.
# Test system: Vero E6 infected with SARS-CoV-2
# assayNotes: inhibition of SARS-CoV-2 cytopathic effect; higher = more antiviral protection, active = above 15
# testContext: 8.33 nM; 48 h
Numbers only, in %.

Reference set, count: 5
Retrieve inhibition of SARS-CoV-2 cytopathic effect on Vero E6 infected with SARS-CoV-2; query COC(=O)C1=C(C)NC(C)=C(C(=O)OCCN(C)Cc2ccccc2)C1c1cccc([N+](=O)[O-])c1 (configuration not stated)
0.28

Retrieve inhibition of SARS-CoV-2 cytopathic effect on Vero E6 infected with SARS-CoV-2; query CCN1CCN(C(=O)Cc2ccc(Nc3ncc(F)c(Nc4ccc(C(=O)Nc5ccccc5Cl)cc4)n3)cc2)CC1
-0.73

Retrieve inhibition of SARS-CoV-2 cytopathic effect on Vero E6 infected with SARS-CoV-2; query C=CC[C@@H]1/C=C(\C)C[C@H](C)C[C@H](OC)[C@H]2O[C@@](O)(C(=O)C(=O)N3CCCC[C@H]3C(=O)O[C@H](/C(C)=C/[C@@H]3CC[C@@H](O)[C@H](OC)C3)[C@H](C)[C@@H](O)CC1=O)[C@H](C)C[C@@H]2OC
1.42

Retrieve inhibition of SARS-CoV-2 cytopathic effect on Vero E6 infected with SARS-CoV-2; query CCCCCCCCCCCCCCCCCCCCCC(=O)O
2.25

Retrieve inhibition of SARS-CoV-2 cytopathic effect on Vero E6 infected with SARS-CoV-2; query COc1cc2c(cc1OC)-c1cc3nc4ccccc4nc3n1C(C)(C)C2
1.86

Report inhibition of SARS-CoV-2 cytopathic effect for every entry below.
1. C[C@H](CCC(=O)O)[C@H]1CC[C@H]2[C@@H]3C[C@H](O)[C@@H]4C[C@H](O)CC[C@]4(C)[C@H]3CC[C@]12C
2. CC(C(=O)O)c1ccc2c(c1)[nH]c1ccc(Cl)cc12 (configuration not stated)

0.2
2.85

* * *

Consider the following compounds; for each one, report its inhibition of SARS-CoV-2 cytopathic effect.
# Test system: Vero E6 infected with SARS-CoV-2
# assayNotes: inhibition of SARS-CoV-2 cytopathic effect; higher = more antiviral protection, active = above 15
# testContext: 8.33 nM; 48 h
One number for each entry, in %.

Reference set, count: 6
For NC(=O)c1ccccc1O [salicylamide] , write its inhibition of SARS-CoV-2 cytopathic effect.
2.62

For CC1(C)OC(=O)NC1=O , write its inhibition of SARS-CoV-2 cytopathic effect.
-1.5

For CN(C)c1ccc2nc3ccc(=[N+](C)C)cc-3sc2c1 , write its inhibition of SARS-CoV-2 cytopathic effect.
-2.37

For N#C[C@H](O[C@@H]1O[C@H](CO[C@@H]2O[C@H](CO)[C@@H](O)[C@H](O)[C@H]2O)[C@@H](O)[C@H](O)[C@H]1O)c1ccccc1 , write its inhibition of SARS-CoV-2 cytopathic effect.
-1.9

For CSc1nc(NC2CCCC2)c([N+](=O)[O-])c(NC2CCCC2)n1 , write its inhibition of SARS-CoV-2 cytopathic effect.
-0.38

For CN1c2c([nH]c(N)nc2=O)NC[C@@H]1CNc1ccc(C(=O)N[C@@H](CCC(=O)O)C(=O)O)cc1 , write its inhibition of SARS-CoV-2 cytopathic effect.
2.72

Report inhibition of SARS-CoV-2 cytopathic effect for every entry below.
1. CCOc1nc2cccc(C(=O)O)c2n1Cc1ccc(-c2ccccc2-c2nnn[nH]2)cc1
2. c1ccc2c(CCNc3ccc(Nc4ccncc4)cc3)c[nH]c2c1

1: -2.91; 2: -1.01

For Cc1ccc(F)c(NC(=O)Nc2ccc(-c3cccc4[nH]nc(N)c34)cc2)c1 , write its inhibition of SARS-CoV-2 cytopathic effect.
-3.15

Recorded values, source the supplement of paper PMC13380429.
